# system: full-length T877A-AR (VP16 fusion) (human)
# assay-notes: two-hybrid
In this section we review reported two-hybrid reporter activity (Gal-4 = 1) values for a set of binders.
Answer as a number with no unit attached.

                               binder                         property_measured  endpoint_result
0   SSGGFERFYIAQ [A41 (Gal-4 fusion)]  two-hybrid reporter activity (Gal-4 = 1)             3510
1   NTPLFQTFYNQR [B45 (Gal-4 fusion)]  two-hybrid reporter activity (Gal-4 = 1)            17200
2   SKFSQLYSYEPP [B49 (Gal-4 fusion)]  two-hybrid reporter activity (Gal-4 = 1)              318
3  SHSSFYQYYLDN [A310 (Gal-4 fusion)]  two-hybrid reporter activity (Gal-4 = 1)             4460
4  SPTPHFTRLFHY [B310 (Gal-4 fusion)]  two-hybrid reporter activity (Gal-4 = 1)             6720

-- ask So what does the record say about two-hybrid reporter activity (Gal-4 = 1) for SPTRLFDHLYMT [B423 (Gal-4 fusion)] ?
-- reply 168

-- ask Another: SDSAFSRLYTRS [C320 (Gal-4 fusion)]
-- reply 4650

-- ask Repeat with HNTKFSTFYNMD [B37 (Gal-4 fusion)]
-- reply 8710

-- ask Proceed to HPARTSFETHYM [B411 (Gal-4 fusion)]
-- reply 16

-- ask Param item: HASPFEMHYLLG [HF-26 (Gal-4 fusion)]
-- reply 8900

-- ask STFESLYNNMTA [C33 (Gal-4 fusion)] ?
-- reply 399

Source: paper PMC4253602
